Tested on: SF-295 CNS
Test: NCI-60 one-dose screen, 48 h
Conditions: 10 µM unless noted
This is part of a sample that, as a whole, favours compounds with a hit. Of some 83,000 tested, about 20% had one in any assay. Active and inactive are the calls of the source. How the source made its calls: active means growth percent below 10; inactive means the rest.
Possible outcomes: active, inactive

{"Molecule": "CC(=O)/C=C/c1cccc2c1C(=O)NC(C)(c1cc3cc(Br)ccc3oc1=O)N2 (stereo not drawn)", "Label": "inactive"}
{"Molecule": "CC(C)c1ccc2c(N)c(C(=O)Nc3cccc(C(F)(F)F)c3)sc2n1", "Label": "inactive"}
{"Molecule": "COC(=O)/C=C/c1cccc2c1C(=O)NC(C)(c1cc3cc4ccccc4cc3oc1=O)N2 (stereo not drawn)", "Label": "inactive"}
{"Molecule": "Cc1ccc(NCC(=O)Cn2cc(COc3ccc(C=Nc4cnc5ccccc5c4)cc3)nn2)cc1", "Label": "inactive"}
{"Molecule": "O=C(O)c1cccc(-c2ccc(/C=N/NC(=O)c3[nH]c4ccc(Br)cc4c3-c3ccccc3)o2)c1", "Label": "inactive"}
{"Molecule": "C=C1CCC2C3(C)COC(c4ccco4)OC3CCC2(C)C1CC(Sc1ccccc1)C1=CCOC1=O (stereo not drawn)", "Label": "inactive"}
{"Molecule": "COc1ccc(C(=O)/C=C/c2cccnc2)cc1S(N)(=O)=O", "Label": "inactive"}
{"Molecule": "COc1cc2c3c(n(CCCN4CCC[C@@H]4CO)c(=O)c2cc1OC)-c1cc2c(cc1C3=O)OCO2", "Label": "active"}
{"Molecule": "N#Cc1c(-c2ccc(Cl)cc2)nc2n[nH]c(-c3ccc(Cl)cc3)c2c1-c1ccc(C(F)(F)F)cc1", "Label": "active"}
{"Molecule": "CC1(C)CC[C@]2(C(=O)Nc3ccc(F)cc3)CC[C@]3(C)C(=CCC4[C@@]5(C)C[C@@H](O)[C@H](O)[C@@](C)(CO)C5CC[C@]43C)C2C1 (stereo partly drawn)", "Label": "inactive"}
{"Molecule": "COc1ccc(N2N=C(c3ccc4c(c3)OCO4)CC2c2cccc(NC(=O)CCCNS(=O)(=O)c3ccc(F)cc3)c2)cc1 (stereo not drawn)", "Label": "inactive"}
{"Molecule": "Cn1cc(-c2nnc(N)nc2-c2c[nH]c3ccc(F)cc23)c2cccnc21", "Label": "inactive"}
{"Molecule": "Cc1ccccc1[C@H]1C(C(=O)c2ccc(Cl)cc2)C2(N[C@@H]1c1ccccc1)C(=O)Nc1ccc(Br)cc12 (stereo partly drawn)", "Label": "inactive"}

----------
System: NCI-H522 lung
Assay: NCI-60 one-dose screen, 48 h
Conditions: 10 µM unless noted
This is part of a sample that, as a whole, favours compounds with a hit. Of some 83,000 tested, about 20% had one in any assay. The source made the active and inactive calls. The calls were made as follows: active = growth percent below 10; inactive = the rest.
Possible outcomes: active, inactive

{"Compound": "Cc1ccc(C(=O)C(c2c[nH]c3ccccc23)c2c[nH]c3ccccc23)cc1", "Label": "active"}
{"Compound": "CC(C)CSc1nc(NCCc2c[nH]c3ccccc23)c(C#N)c(-c2ccc(Cl)cc2)n1", "Label": "inactive"}
{"Compound": "CC(=O)Oc1ccccc1C(=O)[Se]CC(=O)Nc1cccc(C(F)(F)F)c1", "Label": "active"}
{"Compound": "CCOC(=O)C1=C(N)N(c2ccccc2)C2=C(C(=O)CC(C)(C)C2)C1c1ccc(N2CCOCC2)cc1 (stereo unspecified)", "Label": "inactive"}
{"Compound": "Cc1cc(=O)oc2cc(OCCOc3ccc(/C=C/C(=O)Nc4ccccc4N)cc3)ccc12", "Label": "active"}
{"Compound": "COc1ccc(NC(=O)Cn2c(/C=C/c3cccc([N+](=O)[O-])c3)nc3ccccc3c2=O)cc1", "Label": "inactive"}
{"Compound": "CCOC(=O)/C=C/c1cccc2c1C(=O)NC(C)(c1cc3cc(Cl)ccc3oc1=O)N2 (stereo unspecified)", "Label": "inactive"}
{"Compound": "COc1ccc2cc([C@H](C)C(=O)N/N=C/c3ccc(Br)cc3)ccc2c1", "Label": "inactive"}
{"Compound": "COc1cc(-c2nc3ccc(C)cc3[nH]2)ccc1OCc1nnc(-c2ccc(Br)cc2)o1", "Label": "active"}
{"Compound": "COc1cc(C2CC(c3cc(OC)c(OC)c(OC)c3)=NN2c2ccccc2)ccc1OCc1ccc(C)cc1 (stereo unspecified)", "Label": "inactive"}
{"Compound": "COC(=O)/C=C/c1cccc2c1C(=O)NC(C)(c1cc3ccccc3oc1=O)N2 (stereo unspecified)", "Label": "inactive"}

----------
Tested on: KM12 colon
Assay: NCI-60 one-dose screen, 48 h (100 = growth as untreated, 0 = no growth, -100 = all killed)
Conditions: 10 µM unless noted
This is part of a sample that, as a whole, favours compounds with a hit. Of some 83,000 tested, about 20% had one in any assay.
MET means recorded growth is 50% or above; NOT MET means it is below 50%.

{"Compound": "N#Cc1c(-c2ccc(Br)cc2)nc2n[nH]c(-c3ccc(Br)cc3)c2c1-c1ccc(F)cc1", "Label": "MET"}
{"Compound": "O=C(Cn1c(/C=C/c2ccccc2)nc2ccccc2c1=O)Nc1ccccc1", "Label": "MET"}
{"Compound": "CC(=O)/C=C/c1cccc2c1C(=O)NC(C)(c1cc3cc(Br)ccc3oc1=O)N2 (stereo not given)", "Label": "NOT MET"}
{"Compound": "S=C(NCCc1ccccc1)Nc1ccc(OCc2nc3ccccc3[nH]2)cc1", "Label": "MET"}
{"Compound": "OCC1(CCCc2ccccc2)CCCN(c2nccc3ccccc23)C1 (stereo not given)", "Label": "NOT MET"}
{"Compound": "CC1=C(C(=O)OCc2ccccc2)C(c2ccc(-n3cncn3)cc2)n2c(nc3ccccc32)N1 (stereo not given)", "Label": "NOT MET"}
{"Compound": "Cc1ccc2c(N)c(C(=O)Nc3ccc(OC(F)(F)F)cc3)sc2n1", "Label": "MET"}
{"Compound": "O=C1Nc2ccc([N+](=O)[O-])cc2C1=Nc1ccccc1", "Label": "MET"}
{"Compound": "CC(=O)Oc1ccccc1C(=O)[Se]C(=NC1CCCCC1)NC1CCCCC1", "Label": "NOT MET"}
{"Compound": "O=C(COc1ccc(NC(=O)Nc2ccc(Cl)c(Cl)c2)cc1)N=Nc1c(O)[nH]c2ccc(Br)cc12", "Label": "NOT MET"}
{"Compound": "CCOC(=O)c1ccc(Nc2nc(NN)nc(-c3ccc(OC)cc3)c2C#N)cc1", "Label": "MET"}
{"Compound": "COc1ccc(C(=O)/C=C/c2ccc(Cl)c(Cl)c2)cc1S(N)(=O)=O", "Label": "NOT MET"}
{"Compound": "COC(=O)/C=C/c1cccc2c1C(=O)NC(C)(c1cc3cc4ccccc4cc3oc1=O)N2 (stereo not given)", "Label": "MET"}
{"Compound": "CCCS(=O)(=O)N1CCCC(C(=O)Nc2nc3ccc(NC(=O)c4ccc(F)c(OC)c4F)cc3s2)C1 (stereo not given)", "Label": "NOT MET"}
{"Compound": "Cc1c(C(=O)NNC(=O)c2ccc(Cl)cc2)nnn1-c1ccc(Br)cc1", "Label": "MET"}
{"Compound": "O=C(O)c1ccc(-c2ccc(/C=N/NC(=O)c3[nH]c4ccc(Br)cc4c3-c3ccccc3)s2)cc1", "Label": "NOT MET"}
{"Compound": "CCCCSc1nc(Nc2ccc(C(C)=O)cc2)c(C#N)c(-c2ccc(OC)cc2)n1", "Label": "MET"}
{"Compound": "Cc1cccc(-c2nc(Nc3ccc(C)c(S(N)(=O)=O)c3)c3ccccc3n2)c1", "Label": "NOT MET"}
{"Compound": "N#Cc1c(NCc2ccccc2)n[nH]c1Nc1ccccc1", "Label": "MET"}
{"Compound": "CCN(CC)c1ccnc(CNCCSC(c2ccccc2)(c2ccccc2)c2ccc(C)cc2)c1", "Label": "NOT MET"}
